- tested system: Recombinant human H-PGDS (Homo sapiens, UniProt O60760)
- Sequence (O60760 whole entry): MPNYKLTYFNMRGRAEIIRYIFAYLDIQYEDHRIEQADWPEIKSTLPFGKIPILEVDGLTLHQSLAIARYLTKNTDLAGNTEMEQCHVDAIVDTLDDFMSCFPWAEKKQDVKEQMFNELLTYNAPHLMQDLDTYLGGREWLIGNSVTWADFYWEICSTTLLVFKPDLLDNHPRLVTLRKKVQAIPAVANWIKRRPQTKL
- method summary: H-PGDS inhibitory activity (prostaglandin D2 production from prostaglandin H2, measured by LC-MS/MS)
- condition notes: recombinant human H-PGDS 1.0 nM expressed in E. coli; prostaglandin H2 25 μM; preincubated 15 minutes on ice, reacted on ice for 1 minute; concentration that inhibits prostaglandin D2 production by 50%
metric name: IC50 (nM)

Req: Using the record for O=C(NC12CCC(O)(CC1)C2)c1ccc(-c2nccc3occc23)cc1 , report its IC50.
Resp: 1.5

a = CC(=O)N[C@H]1CC[C@H](NC(=O)c2ccc(-c3nccc4occc34)cc2)CC1
b = O=C(N[C@H]1CC[C@H](NCC(F)(F)F)CC1)c1ccc(-c2nccc3occc23)cc1
Req: Consider entries a and b . Which has the numerically lower IC50? // respond with label for picked entry
Resp: b
(b: 1.3 nM, a: 2.9 nM)

1 = CC(C)(O)[C@H]1CC[C@H](NC(=O)c2ccc(-c3nc(CO)cc4occc34)c(F)c2)CC1
2 = O=C(NCc1cnn(CC(F)(F)F)c1)c1ccc(-c2nccc3[nH]ccc23)cc1
3 = O=C(NCc1ccccn1)c1ccc(-c2nccc3occc23)cc1
Req: Thanks in advance: please rank these 3 entries by IC50, highest to lowest. Rank them, then answer with their labels in that order.
Resp: 3, 1, 2

1 = Cn1nccc1N1CCC(NC(=O)c2ccc(-c3nccc4occc34)cc2)CC1
2 = O=C(NC1CCN(CC(F)(F)F)CC1)c1ccc(-c2nccc3occc23)cc1
Req: Which of the two items, 1 and 2 , has the greater recorded IC50? // respond with label for picked entry
Resp: 1
